Origin of values: PubChem BioAssay (Tox21)

Experimental System: Thyrotropin receptor (Homo sapiens) (UniProt P16473)
Sequence (P16473 whole entry, looked up): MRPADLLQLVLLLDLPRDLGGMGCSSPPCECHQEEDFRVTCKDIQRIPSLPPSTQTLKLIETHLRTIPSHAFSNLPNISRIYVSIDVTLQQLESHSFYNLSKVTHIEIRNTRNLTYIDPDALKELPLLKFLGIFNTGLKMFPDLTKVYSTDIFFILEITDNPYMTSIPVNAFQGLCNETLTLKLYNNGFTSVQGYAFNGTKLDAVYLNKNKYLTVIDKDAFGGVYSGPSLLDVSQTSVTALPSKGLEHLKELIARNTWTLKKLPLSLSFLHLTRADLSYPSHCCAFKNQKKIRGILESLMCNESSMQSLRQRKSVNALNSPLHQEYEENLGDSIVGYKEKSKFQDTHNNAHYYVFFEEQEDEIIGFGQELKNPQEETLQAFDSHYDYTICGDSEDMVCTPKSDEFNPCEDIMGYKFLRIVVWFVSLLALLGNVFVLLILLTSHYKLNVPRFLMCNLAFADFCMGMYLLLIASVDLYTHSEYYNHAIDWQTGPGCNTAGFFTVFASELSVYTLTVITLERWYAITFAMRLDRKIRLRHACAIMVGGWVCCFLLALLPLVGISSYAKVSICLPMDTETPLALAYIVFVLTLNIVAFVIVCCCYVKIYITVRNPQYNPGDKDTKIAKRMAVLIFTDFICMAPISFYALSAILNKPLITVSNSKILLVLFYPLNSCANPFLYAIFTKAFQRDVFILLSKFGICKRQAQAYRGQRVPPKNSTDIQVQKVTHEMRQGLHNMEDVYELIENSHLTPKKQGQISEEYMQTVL
Assay Comment: qHTS assay to identify small molecule agonists of the thyroid stimulating hormone receptor (TSHR) signaling pathway (AID 1224843); note: % is set by controls: 0 for no effect and ±100 for the full control effect; nearly all actives have a fitted effect of over 45% in size
Measurement Parameters: TSHR-HEK293 cells, cAMP HTRF, agonist mode, 30 min; series mostly up to 92.4 µM
Results filed as inconclusive are left out. Activity calls are given as the source filed them. Calls come from the whole dose curve.
Endpoint Name: activation

Previously resolved entries follow.
compound="CCCC(C)C(=O)O (stereo not drawn)" experimental_system="Thyrotropin receptor (Homo sapiens) (UniProt P16473)" endpoint_name=activation observed=inactive
compound="OCC(O)[C@@H](O)[C@H](O)[C@H](O)CO[C@H]1O[C@H](CO)[C@@H](O)[C@H](O)[C@H]1O (stereo partly drawn)" experimental_system="Thyrotropin receptor (Homo sapiens) (UniProt P16473)" endpoint_name=activation observed=inactive
compound=O=C(O)c1ccc[n+]([O-])c1 experimental_system="Thyrotropin receptor (Homo sapiens) (UniProt P16473)" endpoint_name=activation observed=inactive
compound=COC(=O)CCCC(=O)O experimental_system="Thyrotropin receptor (Homo sapiens) (UniProt P16473)" endpoint_name=activation observed=inactive
compound=Fc1ccccc1-c1ccccc1 experimental_system="Thyrotropin receptor (Homo sapiens) (UniProt P16473)" endpoint_name=activation observed=inactive
compound="Cc1c(F)cc2c(=O)c(C(=O)O)cn3c2c1CCC3C (stereo not drawn)" experimental_system="Thyrotropin receptor (Homo sapiens) (UniProt P16473)" endpoint_name=activation observed=inactive
compound=N#CCN(CC#N)CCN(CC#N)CC#N experimental_system="Thyrotropin receptor (Homo sapiens) (UniProt P16473)" endpoint_name=activation observed=inactive
compound=O=C(O)c1cccc(C(=O)O)n1 experimental_system="Thyrotropin receptor (Homo sapiens) (UniProt P16473)" endpoint_name=activation observed=inactive
compound="NS(=O)(=O)c1cc2c(cc1C(F)(F)F)NC(Cc1ccccc1)NS2(=O)=O (stereo not drawn)" experimental_system="Thyrotropin receptor (Homo sapiens) (UniProt P16473)" endpoint_name=activation observed=inactive
compound=CCn1cc(C(=O)O)c(=O)c2cc(F)c(N3CCN(C)CC3)cc21 experimental_system="Thyrotropin receptor (Homo sapiens) (UniProt P16473)" endpoint_name=activation observed="-0.535% [at 19 µM] (inactive)"

q: Provide activation value for the following compound: "COC[C@H](c1ccc(C(F)(F)F)cc1)N1CCN(C2(C)CCN(C(=O)c3c(C)ncnc3C)CC2)C[C@H]1C"
a: inactive

q: Provide activation value for the following compound: "Cn1ccc2cc3c(cc21)CCN3C(=O)Nc1cccnc1"
a: 14.6% [at 19 µM] (inactive)

q: Provide activation value for the following compound: "CCC(=O)/C=C/c1ccc(OC)cc1"
a: inactive

* * *

Assay Comment: qHTS assay to test for compound auto fluorescence at 535 nm (green) in HepG2 cells (AID 720675); note: % is set by controls: 0 for no effect and ±100 for the full control effect
Measurement Parameters: green autofluorescence 485/535 nm, 1 h; series mostly up to 91.3 µM
Calls of active or inactive are those of the source. The call rests on the fitted dose curve; in most records, active means well fitted curve in the direction sought with a large enough effect in the repeat runs; inconclusive means weak or mixed curves; inactive means flat fitted curve, though single readings scatter.
Endpoint Name: fluorescence, % of fluorescein control

Previously resolved entries follow.
compound="Cc1nccn1CC1CCc2c(c3ccccc3n2C)C1=O (stereo unspecified)" endpoint_name="fluorescence, % of fluorescein control" observed=inactive
compound="CCN1CCCC(OC(=O)C(c2ccccc2)c2ccccc2)C1 (stereo unspecified)" endpoint_name="fluorescence, % of fluorescein control" observed="0.107% [at 18.6 µM] (inactive)"
compound=CC(C)(C)CC(C)(C)N endpoint_name="fluorescence, % of fluorescein control" observed=inactive
compound=CC(C)CCOC(=O)CC(C)C endpoint_name="fluorescence, % of fluorescein control" observed=inactive

q: Provide fluorescence, % of fluorescein control value for the following compound: "COC(=O)[C@H]1[C@H]2C[C@@H]3c4[nH]c5cc(OC)ccc5c4CCN3C[C@H]2C[C@@H](OC(=O)COc2ccc(OC)cc2)[C@@H]1OC"
a: inactive

q: Provide fluorescence, % of fluorescein control value for the following compound: "NCC[C@H](O)C(=O)N[C@@H]1C[C@H](N)[C@@H](O[C@H]2O[C@H](CN)[C@@H](O)[C@H](O)[C@H]2O)[C@H](O)[C@H]1O[C@H]1O[C@H](CO)[C@@H](O)[C@H](N)[C@H]1O"
a: inactive
